The following compounds are shown together with reported Dmax values.
- Target Or System: BRAF V600E (Homo sapiens, UniProt P15056, V600E)
- Construct: endogenous C-terminal HiBiT fusion tag on BRAF V600E allele; endogenous in cells; host or cells: A375 clone 1F10 (CRISPR-Cas9 knock-in of the HiBiT tag; parental A375 from ATCC)
- Sequence (P15056 whole entry V600E, the tested form may be a part): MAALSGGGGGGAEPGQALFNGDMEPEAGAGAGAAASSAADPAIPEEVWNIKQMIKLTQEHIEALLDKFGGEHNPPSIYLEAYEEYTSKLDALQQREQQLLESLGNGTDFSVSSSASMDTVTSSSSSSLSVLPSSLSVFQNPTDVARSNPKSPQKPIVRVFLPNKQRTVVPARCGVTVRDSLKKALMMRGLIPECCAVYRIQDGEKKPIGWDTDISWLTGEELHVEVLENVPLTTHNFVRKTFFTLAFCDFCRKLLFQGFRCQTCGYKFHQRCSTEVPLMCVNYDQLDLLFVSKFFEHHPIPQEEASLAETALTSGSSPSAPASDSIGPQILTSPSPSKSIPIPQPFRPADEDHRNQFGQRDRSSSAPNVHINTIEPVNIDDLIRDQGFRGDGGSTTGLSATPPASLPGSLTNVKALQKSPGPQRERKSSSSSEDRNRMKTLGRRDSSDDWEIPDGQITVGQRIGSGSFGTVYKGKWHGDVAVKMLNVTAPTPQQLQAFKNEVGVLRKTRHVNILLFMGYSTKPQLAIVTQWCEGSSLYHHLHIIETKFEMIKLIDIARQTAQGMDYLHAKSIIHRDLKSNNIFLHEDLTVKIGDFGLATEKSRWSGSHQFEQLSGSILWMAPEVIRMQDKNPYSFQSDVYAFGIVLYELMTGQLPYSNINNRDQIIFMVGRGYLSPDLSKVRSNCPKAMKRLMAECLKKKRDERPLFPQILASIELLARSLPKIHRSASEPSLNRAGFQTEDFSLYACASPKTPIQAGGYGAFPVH
- Assay Procedure: BRAF HiBiT degradation assay, C-terminal HiBiT-tagged BRAF V600E A375 cells (clone 1F10), Nano-Glo HiBiT Lytic assay
- Format: cell-based
- Condition Description: A-375; A375 (BRAF V600E); percentage protein degraded at maximal compound effect relative to DMSO
Measurement Kind: Dmax

compound="CCCS(=O)(=O)Nc1cccc(-c2cn(-c3ccc(N4CCN(CC5CCN(c6ccc(C7CCC(=O)NC7=O)cc6)CC5)CC4)cc3)nc2-c2ccncc2)c1F (racemic)" target_or_system="BRAF V600E (Homo sapiens, UniProt P15056, V600E)" recorded_value="> 70%"
compound="CCCS(=O)(=O)Nc1cccc(-c2nc(C(C)(C)C)sc2-c2ccnc(Nc3cnn(CC4CCN(C(=O)[C@H]5CC[C@H](Oc6ccc(C7CCC(=O)NC7=O)cc6)CC5)CC4)c3)n2)c1F (mixture of isomers)" target_or_system="BRAF V600E (Homo sapiens, UniProt P15056, V600E)" recorded_value="> 70%"
compound="CCCS(=O)(=O)Nc1cccc(-c2nc(C)sc2-c2ccnc(Nc3ccc(C4CCN(CC5CCN(c6ccc(C7CCC(=O)NC7=O)cn6)CC5)CC4)cc3)n2)c1F (racemic)" target_or_system="BRAF V600E (Homo sapiens, UniProt P15056, V600E)" recorded_value="> 70%"
compound="CCCS(=O)(=O)Nc1cccc(-c2nc(C(C)(C)C)sc2-c2ccnc(Nc3ccc4c(c3)CCN(C(=O)C3CCN(c5ccc(C(=O)NC6CCC(=O)NC6=O)nc5)CC3)C4)n2)c1F (racemic)" target_or_system="BRAF V600E (Homo sapiens, UniProt P15056, V600E)" recorded_value="30 to 70%"
compound="CCCS(=O)(=O)Nc1cccc(-c2nc(C(C)(C)C)sc2-c2ccnc(Nc3ccc(C4CCN(C(=O)COc5ccc6c(c5)C(=O)N(C5CCC(=O)NC5=O)C6=O)CC4)cc3)n2)c1F (racemic)" target_or_system="BRAF V600E (Homo sapiens, UniProt P15056, V600E)" recorded_value="30 to 70%"

---

Documented Dmax across a set of compounds
- Target Or System: BRAF D594G (Homo sapiens, UniProt P15056, D594G)
- Construct: Horizon Discovery (HCT-116 BRAF−/− cells); host or cells: HCT-116 BRAF−/− cells, clone 63, lentiviral transduction
- Sequence (P15056 whole entry D594G): as the sequence (P15056 whole entry V600E, the tested form may be a part) above, with D594G, E600V counted along it
- Assay Procedure: BRAF HiBiT degradation assay, C-terminal HiBiT-tagged BRAF D594G overexpressed in HCT-116 BRAF−/− cells (clone 63), Nano-Glo HiBiT Lytic assay
- Format: cell-based
- Condition Description: BRAF D594G (Class 3), HCT-116 BRAF−/− cells; observed Dmax relative to DMSO control
- Experimental: An A375 cell line expressing a homozygous V600E mutation was purchased from ATCC (Manassas, VA, USA). […] HiBiT signal was measured by a Nano-Glo HiBiT Lytic assay (Promega cat. no. N3050). […] Luminesce units (LU) were read on an EnVision plate reader 2105 (Perkin Elmer). Percent protein remaining and viability remaining per sample were calculated as follows: […]
Measurement Kind: Dmax

compound="CCCS(=O)(=O)Nc1cccc(-c2cn(-c3ccc(N4CCC(CN5CCN(c6ccc(C7CCC(=O)NC7=O)cc6)CC5)CC4)cc3)nc2-c2ccncc2)c1F (racemic) [Compound 381]" recorded_value="30 to 70%"
compound="CCCS(=O)(=O)Nc1cccc(-c2nc(C3CCC4(CC3)CCN(C(=O)C3CCN(c5ccc(C6CCC(=O)NC6=O)cn5)CC3)CC4)sc2-c2ccnc(N)n2)c1F (racemic) [Compound 246]" recorded_value="30 to 70%"
compound="O=C1CCC(c2ccc(N3CCC(CN4CCN(c5ccc(-n6cc(-c7cc(Cl)cc(NS(=O)(=O)N8CC[C@@H](F)C8)c7F)c(-c7ccncc7)n6)c(F)c5)CC4)CC3)nc2)C(=O)N1 (mixture of isomers) [Compound 335]" recorded_value="> 70%"
compound="O=C1CC[C@H](c2ccc(N3CCC(CN4CCN(c5cc(F)c(-n6cc(-c7cc(Cl)cc(NS(=O)(=O)N8CCCC8)c7F)c(-c7ccncc7)n6)cc5F)CC4)CC3)cc2)C(=O)N1 [Compound 353]" recorded_value="> 70%"
compound="O=C1CCN(c2ccc(N3CCC(CN4CCN(c5ccc(-n6cc(-c7cc(Cl)cc(NS(=O)(=O)N8CCCC8)c7F)c(-c7ccncc7)n6)cc5F)CC4)CC3)cc2)C(=O)N1 [Compound 361]" recorded_value="30 to 70%"

Value source: patent US20260317324A1
